Each entry below carries its recorded selectivity ratio.
Assay: Selectivity index, ratio of CC50 for human MT4 cells to EC50 for antiviral activity against HIV1 NL4-3
Assay type: toxicity
METRIC_NAME: selectivity ratio

[N-]=[N+]=N[C@]1(CO)O[C@@H](n2ccc(N)nc2=O)[C@@H](F)[C@@H]1O
380
C=C(C)[C@@H]1CC[C@]2(C(=O)O)CC[C@]3(C)[C@H](CC[C@@H]4[C@@]5(C)C[C@@H](Cc6cn([C@]7(CO)O[C@@H](n8ccc(N)nc8=O)[C@@H](F)[C@@H]7O)nn6)[C@H](O)C(C)(C)[C@@H]5CC[C@]43C)[C@@H]12
1230
C=C(C)[C@@H]1CC[C@]2(C(=O)O)CC[C@]3(C)[C@H](CC[C@@H]4[C@@]5(C)C[C@@H](Cc6cn([C@]7(CO)O[C@@H](n8ccc(O)nc8=O)[C@@H](F)[C@@H]7O)nn6)[C@H](O)C(C)(C)[C@@H]5CC[C@]43C)[C@@H]12
1190
